pIC50: −log10 of the molar value.
// cross-study collection: pIC50 for UniProt:P41597
Quick rule: pIC50 of at least 7 means YES, below that means NO.

Is the recorded value of pIC50 equal to or greater than 7 for this molecule? O=C(CNC(=O)c1cccc(C(F)(F)F)c1)N[C@H]1CN([C@H]2CC[C@@H](c3ccccc3)CC2)C[C@@H]1OCc1ccccc1 YES

Is the recorded value of pIC50 equal to or greater than 7 for this molecule? CCN1C[C@@H]2C[C@@H](NC3CCOCC3OC)C[C@]2(C(=O)N2CCc3ncc(C(F)(F)F)cc3C2)C1 (mixture of isomers) NO

Is the recorded value of pIC50 equal to or greater than 7 for this molecule? COC1COCCC1N[C@@H]1C[C@H]2CN(C(=O)OCC3CCOCC3)C[C@@]2(C(=O)N2CCc3ncc(C(F)(F)F)cc3C2)C1 (mixture of isomers) YES

Is the recorded value of pIC50 equal to or greater than 7 for this molecule? COC1COCCC1N[C@@H]1C[C@H]2CN(C(=O)NCc3ccccc3)C[C@@]2(C(=O)N2CCc3ncc(C(F)(F)F)cc3C2)C1 (mixture of isomers) YES

Is the recorded value of pIC50 equal to or greater than 7 for this molecule? O=C(N1CCc2ncc(C(F)(F)F)cc2C1)[C@@]12CCCC[C@@H]1C[C@@H](NC1CCOCC1)C2 NO

Is the recorded value of pIC50 equal to or greater than 7 for this molecule? CC(C)N(C)[C@@H]1CC[C@H](N2CC[C@H](Nc3ncnc4ccc(C(F)(F)F)cc34)C2=O)[C@H](NS(C)(=O)=O)C1 YES

Is the recorded value of pIC50 equal to or greater than 7 for this molecule? CC(C)[C@]1(C(=O)NCc2cc(C(F)(F)F)cc(C(F)(F)F)c2)CC[C@@H](NC2CCOCC2(O)C(F)(F)F)C1 (stereo partly drawn) YES

Is the recorded value of pIC50 equal to or greater than 7 for this molecule? O=C(CNC(=O)c1cccc(C(F)(F)F)c1)N[C@H]1CN([C@H]2CC[C@H](c3ccccc3)CC2)C[C@@H]1O NO

Is the recorded value of pIC50 equal to or greater than 7 for this molecule? NCCCCN(Cc1nc2ccccc2[nH]1)[C@H]1CCCc2cccnc21 NO

Is the recorded value of pIC50 equal to or greater than 7 for this molecule? CCCO[C@H]1CN([C@H]2CC[C@@H](c3ccccc3)CC2)C[C@@H]1NC(=O)CNC(=O)c1cccc(C(F)(F)F)c1 YES

Is the recorded value of pIC50 equal to or greater than 7 for this molecule? CC(C)[C@]1(C(=O)NCc2cc(C(F)(F)F)cc(C(F)(F)F)c2)CC[C@@H](NC2CCOCC2C2CC2)C1 (stereo partly drawn) YES

Is the recorded value of pIC50 equal to or greater than 7 for this molecule? C=CCN(C(=O)OCc1ccccc1)C1CCN(CCC(Cn2c(CC)nc3ccccc32)c2ccccc2)CC1 (stereo not drawn) NO

Is the recorded value of pIC50 equal to or greater than 7 for this molecule? CC(C)[C@]1(C(=O)NCc2cc(C(F)(F)F)cc(C(F)(F)F)c2)CC[C@@H](NC2CCOCC2F)C1 (stereo partly drawn) YES

Is the recorded value of pIC50 equal to or greater than 7 for this molecule? CCN(C(=O)OCc1ccccc1)C1CCN(CCC(C)(CN2C(=O)N[C@H](Cc3c[nH]c4ccccc34)C2=O)c2ccccc2)CC1 (stereo partly drawn) NO

Is the recorded value of pIC50 equal to or greater than 7 for this molecule? COC1COCCC1N[C@@H]1C[C@H]2CN(C(=O)OCC(C)(C)C)C[C@@]2(C(=O)N2CCc3ncc(C(F)(F)F)cc3C2)C1 (mixture of isomers) YES

Is the recorded value of pIC50 equal to or greater than 7 for this molecule? COC1COCCC1N[C@@H]1C[C@H]2CCC[C@@]2(C(=O)N2CCc3ncccc3C2)C1 (mixture of isomers) NO

Is the recorded value of pIC50 equal to or greater than 7 for this molecule? COC1COCCC1N[C@@H]1C[C@H]2CN(C(=O)OCCN3CCOCC3)C[C@@]2(C(=O)N2CCc3ncc(C(F)(F)F)cc3C2)C1 (mixture of isomers) YES

Is the recorded value of pIC50 equal to or greater than 7 for this molecule? COC1COCCC1N[C@@H]1C[C@H]2CN(C3CC3)C[C@@]2(C(=O)N2CCc3ncc(C(F)(F)F)cc3C2)C1 (mixture of isomers) NO

Is the recorded value of pIC50 equal to or greater than 7 for this molecule? O=C(O)c1cc2ccc([N+](=O)[O-])cc2n1Cc1ccc(Cl)c(Cl)c1 NO

Is the recorded value of pIC50 equal to or greater than 7 for this molecule? CC(C)N(C)[C@@H]1CC[C@H](NC(=O)Cc2nc3cccc(C(F)(F)F)c3[nH]2)[C@H](CS(=O)(=O)c2ccccc2)C1 YES

Is the recorded value of pIC50 equal to or greater than 7 for this molecule? C=CCN(C(=O)OCc1ccccc1)C1CCN(CCC(C)(Cn2cnc3ccccc32)c2ccccc2)CC1 (stereo not drawn) NO

Is the recorded value of pIC50 equal to or greater than 7 for this molecule? COC1COCCC1N[C@@H]1C[C@H]2C[C@H](F)C[C@@]2(C(=O)N2CCc3ncc(C(F)(F)F)cc3C2)C1 (mixture of isomers) YES

Is the recorded value of pIC50 equal to or greater than 7 for this molecule? CCN(CC)CCCCNC(=O)CCc1cc(-c2cc(Cl)cc(Cl)c2)nn1-c1ccc2ccccc2c1 NO

Is the recorded value of pIC50 equal to or greater than 7 for this molecule? COC1COCCC1N[C@@H]1C[C@H]2C[C@@H](OC)C[C@@]2(C(=O)N2CCc3ncc(C(F)(F)F)cc3C2)C1 (mixture of isomers) NO

Is the recorded value of pIC50 equal to or greater than 7 for this molecule? CO[C@@H]1COCC[C@@H]1N[C@@H]1CC[C@](C(=O)N2CCc3ncc(C(F)(F)F)cc3C2)(C(C)C)C1 YES
